Data origin, for the record: patent US20260092061A1

Entries annotated with measured Dmax
measured on: BRD9 (Homo sapiens, UniProt Q9H8M2)
Sequence (Q9H8M2 whole entry): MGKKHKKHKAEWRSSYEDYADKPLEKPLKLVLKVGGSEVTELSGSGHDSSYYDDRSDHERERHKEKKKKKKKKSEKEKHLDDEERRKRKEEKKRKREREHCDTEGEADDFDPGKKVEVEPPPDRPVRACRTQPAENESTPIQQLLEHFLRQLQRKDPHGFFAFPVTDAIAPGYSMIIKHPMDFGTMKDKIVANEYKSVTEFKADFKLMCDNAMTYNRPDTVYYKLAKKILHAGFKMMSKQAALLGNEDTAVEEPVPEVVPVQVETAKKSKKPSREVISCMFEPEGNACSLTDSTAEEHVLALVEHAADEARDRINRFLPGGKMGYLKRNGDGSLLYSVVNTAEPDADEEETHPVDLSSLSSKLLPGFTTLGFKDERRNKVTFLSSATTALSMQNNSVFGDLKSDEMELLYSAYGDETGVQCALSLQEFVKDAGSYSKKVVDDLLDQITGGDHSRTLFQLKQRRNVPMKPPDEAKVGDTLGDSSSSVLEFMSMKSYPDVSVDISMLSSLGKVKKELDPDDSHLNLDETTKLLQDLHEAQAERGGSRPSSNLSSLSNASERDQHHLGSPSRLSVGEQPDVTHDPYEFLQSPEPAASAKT
method: Degradation of BRD9 (IF), immunofluorescence in MV4-11 cells, 24 hours (Assay Protocol 2)
Type: cell-based
Set-up: A suspension of MV4-11 cells (ATCC CRL-9591) was prepared; host or cells: MV4-11
test settings: MV4-11, Assay protocol 2; BRD9 degradation; read-out: Dmax

COc1cc(-c2cn(C)c(=O)c(C)c2C)cc(OC)c1CN1CCN(Cc2ccc3c(c2)[C@H](C(C)C)N(C(=O)/C(C#N)=C/C(C)(C)C)CC3)C2(CC2)C1 (single isomer, unassigned) [Compound C87] | 70 to 75%

// Dmax value for COc1cc(-c2cn(C)c(=O)c(C)c2C)cc(OC)c1CN1CCN(Cc2cccc3c2CCN(C(=O)/C(C#N)=C/C(C)(C)C)C3C)[C@H](C)C1 (mixture of isomers) [Compound B119] : 40 to 70%

Per the record, COCC1(/C=C(\C#N)C(=O)N2CCc3c(CN4CCN(Cc5c(OC)cc(-c6cn(C)c(=O)c(C)c6C)cc5OC)CC45CC5)cccc3C2C)CC1 (mixture of isomers) [Compound B124] has Dmax of > 75%
